compounds and their reported growth inhibition
Assay: Restrictive medium S. cerevisiae growth inhibition, OD615, pilot screen of yeast lifespan reduction project, restrictive growth control (AID 706);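 note: modified DeaD lifespan yeast strain shifted to restrictive glucose medium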
Details: OD615, 48 h, at 10 µM, stronger effect = higher value
// return numeric value only (unit: %, not printed)

* COc1ccc(C2=NOC(C(=O)N3CCN(c4ccccc4OC)CC3)C2)cc1 (stereo not drawn) | 0.135
* Cc1nc2sc(C(c3cccs3)N3CCN(c4ccccc4)CC3)c(O)n2n1 (stereo not drawn) | 5.34

Name the reported growth inhibition value associated with the compound Cc1ccnc(N2C(=O)c3ccccc3C2Nc2ccccc2Cl)c1 (stereo not drawn)
-17.5

====

molecules and their reported inhibition
Assay: inhibitors of the yeast RAM network, pilot screen, dse1pr::URA3 reporter, 5-FOA selection (AID 869);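 note: 0% = DMSO wells with no growth and 100% = 10 µM 1-NA-PP1 with full growth; RAM network block rescues cells from 5-FOA so hits raise OD615 growth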
Conditions: S. cerevisiae dse1pr::URA3 5-FOA growth, OD615, 2 d; at 10 µM; stronger effect = higher value; strain carries analog-sensitive mutant Cbk1 kinase
// return numeric value only (unit: %, not printed)

• Cc1noc(NS(=O)(=O)c2ccc(NC(=O)CSc3nc4c(cc3C#N)CCC4)cc2)c1C = 0.805
• Cc1ccc(-c2nc(NC(=O)CSc3nnc4scc(-c5ccccc5)n34)ns2)cc1 = 2.42
• CCOC(=O)N1CCN(c2c(N3CCOCC3)c(=O)c2=O)CC1 = 2.57

For the next question, use this molecule.
Name the reported inhibition value associated with the molecule `COC(=O)c1c(C)nc(C)c2c(=O)oc3ccccc3c12`
2.04

====

Assay: growth suppression of PTEN-deleted HCT116, pilot screen, cell-based, HCT116 clonal line, CellTiter-Glo (AID 824);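 note: 0% = 20 µM Hyamine control and 100% = vehicle cell control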
Details: 60 h, at 10 µM, stronger effect = lower value
Records with an inconclusive call do not appear.
endpoint: viability (%)
// return numeric value only (unit: %, not printed)

Below, 2 molecules whose answers are already recorded.
* Nc1nonc1C(=O)NCCc1ccccc1 | 99.6
* CCOc1ccc(Nc2ncnc(N)n2)cc1 | 102

For the next question, use this molecule.
Name the reported viability value associated with the molecule `Cc1ccccc1-c1nnc(SCC(=O)Nc2ccc3c(c2)OCCO3)n1N`
91.7

====

Experiment: growth suppression of PTEN-deleted HCT116, pilot screen, cell-based, HCT116 clonal line, CellTiter-Glo (AID 824);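 note: 0% = 20 µM Hyamine control and 100% = vehicle cell control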
Details: 60 h, at 10 µM
Inconclusive results are not listed. Calls of active or inactive are those of the source.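 How the source made its calls: active means viability at or below 27.92% in each of two runs, the all-compound median minus 4 SD; inconclusive means no clear call, values can overlap the other calls; inactive means the rest.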
Outcome (select one): T for active, F for inactive

* C=CCNC(=O)c1c(Cl)cccc1Cl | F

Tell me the assay call for `CC(C)N(Cc1nc(-c2ccccc2)no1)S(=O)(=O)c1ccccc1` please.
F

Tell me the assay call for Cc1c(NC(=O)C2CC=CCC2C(=O)O)c(=O)n(-c2ccccc2)n1C (stereo not drawn) please.
F

Tell me the assay call for CC(C)NC(=O)C1(O)c2ccccc2NC(=O)N1c1ccc(Cl)c(Cl)c1 (stereo not drawn) please.
F

Tell me the assay call for `CCOC(=O)N1CCN(C(=O)CSc2nnc(-c3ccc(C(C)(C)C)cc3)o2)CC1` please.
F

Tell me the assay call for `O=C(Nc1c(F)c(F)c(F)c(F)c1F)C1CCCCC1` please.
F

Tell me the assay call for `CC(C)c1ccc(NC(=O)c2cnn(-c3ccccc3)c2NC(=O)c2ccco2)cc1` please.
F

Tell me the assay call for `CCCSCCCNC(=O)Cn1cc2c(n1)CCCCC2` please.
F

Tell me the assay call for `O=C(CSc1n[nH]c(-c2ccccc2)n1)c1ccccc1` please.
F
